# Tested on: L6-myotubes
# assay_notes: Glucose uptake in differentiated L6-myotubes (Biological Example 2)
# Assay type: cell-based
# protocol_conditions: glucose uptake; compound at 10 μM relative to isoproterenol at 10 μM; read-out: Biological example 2 (GU)
measurement_label: Emax at 10 µM

Oc1ccc(C(O)CNC23CC4CC(CC(C4)C2)C3)cc1 (stereo not drawn)	25 to 50%
CCCCNC[C@H](O)c1cnc(N)nc1	50 to 75%
CC(C)(C)NC[C@H](O)c1ccncc1F	25 to 50%
CCCCNC[C@H](O)c1cnc(N)s1	25 to 50%
CC(C)(C)NC[C@H](O)c1cncc(O)c1	> 75%

Next compound, please.
Request: Tell us which Emax at 10 µM value is on record for CCCC(C)(C)NC[C@H](O)c1cccc(F)c1
Response: > 75%

----------
For each record, write down the corresponding Emax at 10 µM.
# Test system: L6-myotubes
# assay_notes: Glucose uptake in differentiated L6-myotubes (Biological Example 2)
# Type: cell-based
# protocol_conditions: glucose uptake in differentiated L6-myotubes; compound at 10 μM, activity relative to isoproterenol at 10 μM; read-out: Biological example 2 (GU)
# Description: Compounds described in publications referenced and incorporated herein were screened in accordance with the procedures outlined in Biological example 2 and Biological example 3. […]

CC(C)(C[C@H]1CC[C@H](NS(C)(=O)=O)CC1)NC[C@H](O)c1cncc(F)c1 [Compound 360]	> 75%

Dear colleague, could you send me Emax at 10 µM for each of the items below? Thanks.
1. O[C@@H](CNCC[C@H]1CC[C@H](O)CC1)c1cncc(F)c1 [Compound 294]
2. CO[C@H]1CC[C@H](CC(C)(C)NC[C@H](O)c2cncc(F)c2)CC1 [Compound 250]
3. CC(=O)N[C@H]1CC[C@H](CC(C)(C)NC[C@H](O)c2cccc(C(F)(F)F)n2)CC1 [Compound 460]
4. CC(C)(NC[C@H](O)c1cncc(F)c1)[C@H]1CC[C@@H](O)CC1 [Compound 286]
5. CO[C@H]1CC[C@H](CNC[C@H](O)c2cccc(F)c2)CC1 [Compound 228]

Response:
1. 25 to 50%
2. 50 to 75%
3. 50 to 75%
4. 25 to 50%
5. 50 to 75%

Dear colleague, could you send me Emax at 10 µM for each of the items below? Thanks.
1. CC1(C)C[C@@H]([C@H](O)c2ccccc2F)N1 [Compound 202]
2. CC(C)(C[C@H]1CC[C@@H](N)CC1)NC[C@@H](O)c1cccc(C#N)n1 [Compound 416]
3. CC12CCC([C@H](O)c3ccncc3F)(CC1)N2 [Compound 254]
4. CS(=O)(=O)N(Cc1ccccc1)c1ccc(CC23CCC([C@H](O)c4cccc(F)c4)(CC2)N3)cc1 [Compound 473]
5. CO[C@H]1CC[C@@H](CCCNC[C@H](O)c2cccc(F)c2)CC1 [Compound 258]
6. O[C@@H](CNCC[C@H]1CC[C@@H](OCc2ccccc2)CC1)c1cncc(F)c1 [Compound 291]
7. CC(C)(C[C@H]1CC[C@@H](NS(C)(=O)=O)CC1)NC[C@H](O)c1cccc(C(F)(F)F)n1 [Compound 463]
8. CC1(C)C[C@H]([C@@H](O)c2cccc(F)c2)N1 [Compound 201]

Response:
["< 25%", "50 to 75%", "< 25%", "25 to 50%", "> 75%", "50 to 75%", "50 to 75%", "< 25%"]

Dear colleague, could you send me Emax at 10 µM for each of the items below? Thanks.
1. COc1ccc(CCC23CCC([C@@H](O)c4cccc(F)c4)(CC2)N3)cc1 [Compound 539]
2. CC(C)(C[C@H]1CC[C@H](NS(C)(=O)=O)CC1)NC[C@@H](O)c1cccc(C#N)n1 [Compound 428]
3. CC1(C)C[C@H]([C@@H](O)c2cccc(Cl)c2)N1 [Compound 233]
4. CC(C)(C[C@H]1CC[C@H](NC(=O)OC(C)(C)C)CC1)NC[C@H](O)c1cccc(F)c1 [Compound 420]
5. COC(=O)[C@H]1CC[C@H](CCC(C)(C)NC[C@H](O)c2cccc(F)c2)CC1 [Compound 350]
6. CO[C@H]1CC[C@H](C[C@@H]2CC[C@H]([C@H](O)c3ccccc3F)N2)CC1 [Compound 337]

Response:
["< 25%", "< 25%", "< 25%", "50 to 75%", "> 75%", "> 75%"]

Dear colleague, could you send me Emax at 10 µM for each of the items below? Thanks.
1. CS(=O)(=O)N[C@H]1CC[C@H](CNC[C@H](O)c2cncc(F)c2)CC1 [Compound 313]
2. O[C@@H](c1cccc(F)c1)C12CCC(COCc3ccc(Cl)cc3)(CC1)N2 [Compound 395]
3. CO[C@H]1CC[C@@H](CCNC[C@H](O)c2cncc(F)c2)CC1 [Compound 238]
4. COC(=O)[C@H]1CC[C@@H](C(C)(C)NC[C@H](O)c2cccc(F)c2)CC1 [Compound 328]
5. CO[C@H]1CC[C@@H](C(C)(C)NC[C@H](O)c2cncc(F)c2)CC1 [Compound 252]
6. COC(=O)[C@H]1CC[C@@H](CC(C)(C)NC[C@H](O)c2cccc(F)c2)CC1 [Compound 327]

Response:
["25 to 50%", "50 to 75%", "> 75%", "> 75%", "< 25%", "> 75%"]

----------
# System: L6-myotubes
# assay_notes: Measurement of intracellular cAMP levels in differentiated L6-myotubes (Biological Example 3)
# Assay type: cell-based
# protocol_conditions: 0.25 h, intracellular cAMP; compound at 10 μM relative to isoproterenol at 10 μM
measurement_label: Emax at 10 µM

Please review the following examples before continuing.
CC(C)(C)CNC[C@H](O)c1cccc(F)c1	< 25%
CC1(C)CC[C@H]([C@@H](O)c2cccc(O)c2)N1	< 25%
CC1(C)CC[C@@H]([C@@H](O)c2cccc(F)c2)N1	< 25%
CCCCNCC(O)c1ccncc1 (centres unmarked)	< 25%

Dear colleague, could you send me Emax at 10 µM for each of the items below? Thanks.
1. CCC[C@H]1CCC[C@H]([C@H](O)c2cccc(F)c2)N1
2. CC1(C)CCC[C@H]([C@@H](O)c2cccc(F)c2)N1
3. CCC[C@@H](C)NC[C@H](O)c1ccc(F)cc1
4. CCC[C@@H]1CC[C@H]([C@@H](O)c2cccc(F)c2)N1
5. O[C@@H](c1cccc(F)c1)[C@H]1CCC2(CC2)N1
6. CC12CCC([C@H](O)c3ccccc3F)(CC1)N2

Response:
["< 25%", "< 25%", "< 25%", "< 25%", "< 25%", "< 25%"]

Request: State Emax at 10 µM (L6-myotubes) of CCCC1(CCC)CC[C@H]([C@@H](O)c2cccc(F)c2)N1 .
Response: < 25%

----------
# System: L6-myotubes
# assay_notes: Measurement of intracellular cAMP levels in differentiated L6-myotubes (Biological Example 3)
# Format: cell-based
# protocol_conditions: 0.25 h, intracellular cAMP in differentiated L6-myotubes; compound at 10 μM, activity relative to isoproterenol at 10 μM
For each record, write down the corresponding Emax at 10 µM.

CC12CC(C1)[C@@H]([C@@H](O)c1cccc(Cl)c1)N2 [Compound 207]	< 25%
CC1(C)C[C@H]([C@H](O)c2ccccc2F)N1 [Compound 204]	25 to 50%
COC(=O)[C@H]1CC[C@H](C(C)(C)NC[C@H](O)c2cccc(F)c2)CC1 [Compound 367]	25 to 50%
CC(C)(C[C@H]1CC[C@@H](NC(=O)C2CC2)CC1)NC[C@H](O)c1cccc(F)c1 [Compound 447]	< 25%
CCCS(=O)(=O)N[C@H]1CC[C@@H](CC(C)(C)NC[C@H](O)c2cncc(F)c2)CC1 [Compound 523]	< 25%

Dear colleague, could you send me Emax at 10 µM for each of the items below? Thanks.
1. CS(=O)(=O)N[C@H]1CC[C@H](C[C@@H]2CC[C@H]([C@H](O)c3cccc(F)c3)N2)CC1 [Compound 504]
2. CC(C)(NC[C@H](O)c1cncc(F)c1)[C@H]1CC[C@H](OCc2ccccc2)CC1 [Compound 281]

Response:
1. < 25%
2. < 25%

Request: Tell us which Emax at 10 µM value is on record for O[C@H](c1cccc(F)c1)C12CCC(Cc3ccc(OC(F)(F)F)cc3)(CC1)N2 [Compound 500]
Response: < 25%

----------
# System: L6-myotubes
# assay_notes: Glucose uptake in differentiated L6-myotubes (Biological Example 2)
# Format: cell-based
# protocol_conditions: glucose uptake in differentiated L6-myotubes; compound at 10 μM, activity relative to isoproterenol at 10 μM; read-out: Biological example 2 (GU)
measurement_label: Emax at 10 µM

Dear colleague, could you send me Emax at 10 µM for each of the items below? Thanks.
1. CC12CC(C1)[C@H]([C@H](O)c1cncc(F)c1)N2
2. O[C@@H](c1cccc(F)c1)[C@H]1CC[C@@H](Cc2ccc(Cl)cc2)N1
3. CC(=O)N[C@H]1CC[C@@H](CC(C)(C)NC[C@H](O)c2cncc(F)c2)CC1
4. O[C@H](c1cccc(F)c1)C12CCC(CCc3ccc(Cl)cc3)(CC1)N2
5. O[C@@H](c1cncc(F)c1)[C@H]1CC[C@@H](Cc2ccc(Cl)cc2)N1
6. CS(=O)(=O)N[C@H]1CC[C@@H](CNC[C@H](O)c2cncc(F)c2)CC1
7. CC(C)(CC[C@H]1CC[C@H](C(=O)O)CC1)NC[C@H](O)c1cccc(F)c1

Response:
1: > 75%; 2: 50 to 75%; 3: > 75%; 4: < 25%; 5: 50 to 75%; 6: 50 to 75%; 7: < 25%
